B1: LINE1-full (parent)
chain: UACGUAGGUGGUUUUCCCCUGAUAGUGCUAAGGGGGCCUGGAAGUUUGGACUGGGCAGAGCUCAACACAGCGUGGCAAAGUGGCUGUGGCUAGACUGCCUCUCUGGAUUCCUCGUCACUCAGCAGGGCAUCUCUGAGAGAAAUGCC

variants of: B1; experiment: self-cleavage, relative activity (ratio to wild type); higher = more cleavage; in vitro, sequencing; the parent is a self-cleaving ribozyme
Please provide measured self-cleavage for the entries that follow.
One number for each entry.

In the examples that follow, each entry is paired with its recorded self-cleavage.
INSERT INTO measurements (alteration, result_value) VALUES
  ('G75A U115A', 1.12),
  ('C51U A140G', 1.09),
  ('U46A A136U', 1.18),
  ('U15A U39A', 0.85);

Hi! Can you tell me self-cleavage for each of these variants?
1. U47A U87A
2. A6G A92G

[0.11, 0.22]

I would be grateful if you could provide self-cleavage for each of the following entries.
1. U45C C145U
2. U5C U102C
3. G27U U132A
4. U14C A30G
5. C28G U39C
6. A42G C113U
7. U47A U102A

1: 1.5; 2: 1; 3: 1.23; 4: 1.08; 5: 0.82; 6: 1.12; 7: 1.35

Hi team, please reply with self-cleavage for each item in this list.
1. A30G U52A
2. A64G G127U
3. U115C U132A
4. U13A C38A

1: 1.21; 2: 0.21; 3: 2.4; 4: 0.96

// each listed variant needs a value for self-cleavage
1. U85A A138G
2. A57G A129C

1. 0.07
2. 1.33
